Give pIC50 for every item shown.
# TARGET DESC: Human autotaxin enzyme (Homo sapiens, UniProt Q13822)
# Construct: purchased R&D System
# ASSAY: Evaluation of autotaxin inhibitor, Method C (Test Example 3): 18:0 Lyso PC, choline assay, Resorufin fluorescence
# Type: biochemical
# CONDITION SET: Assay Method C (Test Example 3), human autotaxin, 18:0 Lyso PC substrate; read-out: Inhibitory Activity (autotaxin enzyme inhibitory activity, IC50 class)
pIC50: −log10 of the molar value.

Record CCCCCn1c(N2CCC[C@H]2C(=O)NCCCN(C)C(=O)OC(C)(C)C)cc(=O)n2cc(-c3ccc(Cl)cc3)nc12 , field pIC50: 6.00 to 7.00

Record CCCCCn1c(N2CCNC(=O)C2)cc(=O)n2cc(-c3ccc(Cl)cc3)nc12 , field pIC50: 6.00 to 7.00

Record CCCCCn1c(N2CCC[C@H]2C(=O)N(C)CC(=O)N(C)C)cc(=O)n2cc(-c3ccc(Cl)cc3)nc12 , field pIC50: 7.00 to 8.00

Record CCCCCn1c(N2CCNC[C@@H]2C(=O)NCC(=O)O)cc(=O)n2cc(-c3ccc(Cl)cc3)nc12 , field pIC50: 7.00 to 8.00

Record CCCCCn1c(-c2ccc(C(=O)NCCS(C)(=O)=O)cc2)cc(=O)n2cc(-c3ccc(Cl)cc3)nc12 , field pIC50: 7.00 to 8.00

Record CCCCCn1c(/N=C(\C)OCc2ccc(C(=O)OC)cc2)cc(=O)n2cc(-c3ccc(Cl)cc3)nc12 , field pIC50: < 6.00

Record CCCCCn1c(N2CCC[C@H]2C(=O)NC2CCNC2=O)cc(=O)n2cc(-c3ccc(Cl)cc3)nc12 (stereo partly drawn) , field pIC50: 7.00 to 8.00

Record CCCCCn1c(OCc2ccc(C(=O)O)cc2)cc(=O)n2cc(-c3ccc(Cl)cc3)nc12 , field pIC50: 7.00 to 8.00

Record CCCCCn1c(-c2ccc(C(=O)NC3CN(C)C3)cc2)cc(=O)n2cc(-c3ccc(Cl)cc3)nc12 , field pIC50: 7.00 to 8.00

Record CCCCCn1c(OC2CNC2)cc(=O)n2cc(-c3ccc(Cl)cc3)nc12 , field pIC50: 7.00 to 8.00

Record CCCCCn1c(N2CCN(C(=O)OC(C)(C)C)C[C@@H]2C(=O)NCCC(=O)O)cc(=O)n2cc(-c3ccc(Cl)cc3)nc12 , field pIC50: 7.00 to 8.00

Record CCCCCn1c(-c2ccc(C(=O)NCCCO)cc2)cc(=O)n2cc(-c3ccc(Cl)cc3)nc12 , field pIC50: 7.00 to 8.00

Record CCCCCn1c(-c2ccc3ncsc3c2)cc(=O)n2cc(-c3ccc(Cl)cc3)nc12 , field pIC50: 7.00 to 8.00

Record CCCCCn1c(N2CCC[C@H]2C(=O)N[C@@H](CCCC)C(=O)O)cc(=O)n2cc(-c3ccc(Cl)cc3)nc12 , field pIC50: > 8.00

Record CCCCCn1c(N2CCC[C@@H](C(=O)O)C2)cc(=O)n2cc(-c3ccc(Cl)cc3)nc12 , field pIC50: 7.00 to 8.00

====

Give IC50 for every item shown.
# TARGET DESC: Human autotaxin enzyme (Homo sapiens)
# Construct: purchased R&D System
# ASSAY: Evaluation of autotaxin inhibitor, Method B (Test Example 2): TG-mTMP fluorescence
# Assay type: biochemical
# CONDITION SET: Assay Method B (Test Example 2), human autotaxin; read-out: Inhibitory Activity (autotaxin enzyme inhibitory activity, IC50 class)

Record CCCCCn1c(OC(C)C)cc(=O)n2cc(-c3ccc(Cl)cc3)nc12 , field IC50: 10 to 100 nM

Record CCCCCn1c(N(CCO)CCO)cc(=O)n2cc(-c3ccc(Cl)cc3)nc12 , field IC50: 10 to 100 nM

Record CCCCCn1c(C)c(F)c(=O)n2cc(-c3ccc(Cl)cc3)nc12 , field IC50: 10 to 100 nM

Record CCCCCn1c(-c2cnc(N)cn2)cc(=O)n2cc(-c3ccc(Cl)cc3)nc12 , field IC50: < 10 nM

Record Cc1cc(=O)n2cc(-c3ccc(Cl)cc3)nc2n1Cc1ccc(COc2ccccc2)cc1 , field IC50: > 1000 nM

Record CCCCCOC(=O)CCc1c(C)n(CCCCC)c2nc(-c3ccc(Cl)cc3)cn2c1=O [Compound 217] , field IC50: 100 to 1000 nM

Record CCCCCn1c(-c2ccc(C(=O)NCCN3CCOCC3)cc2)cc(=O)n2cc(-c3ccc(Cl)cc3)nc12 , field IC50: < 10 nM

Record Cc1cc(=O)n2cc(-c3ccc(Cl)cc3)nc2n1Cc1ccccn1 , field IC50: 10 to 100 nM

====

# TARGET DESC: Human autotaxin enzyme (Homo sapiens)
# Construct: purchased R&D System
# ASSAY: Evaluation of autotaxin inhibitor, Method C (Test Example 3): 18:0 Lyso PC, choline assay, Resorufin fluorescence
# Format: biochemical
# CONDITION SET: Assay Method C (Test Example 3), human autotaxin, 18:0 Lyso PC substrate; read-out: Inhibitory Activity (autotaxin enzyme inhibitory activity, IC50 class)
pIC50: −log10 of the molar value.
Give pIC50 for every item shown.

Record CCCCCn1c(-c2cnc(C(=O)O)nc2)cc(=O)n2cc(-c3ccc(Cl)cc3)nc12 [Compound 533] , field pIC50: > 8.00

Record CCCCCn1c(-c2ccc(S(=O)(=O)NCCO)cc2)cc(=O)n2cc(-c3ccc(Cl)cc3)nc12 [Compound 412] , field pIC50: 7.00 to 8.00

Record CCCCCn1c(N2CCC[C@H]2C(=O)NCCCO)cc(=O)n2cc(-c3ccc(Cl)cc3)nc12 [Compound 339] , field pIC50: 7.00 to 8.00

Record CCCCCn1c(-c2cccc(C(=O)NCCOC)c2)cc(=O)n2cc(-c3ccc(Cl)cc3)nc12 [Compound 436] , field pIC50: 7.00 to 8.00

Record CCCCCn1c(N2CCNC[C@@H]2C(=O)NCCC(=O)O)cc(=O)n2cc(-c3ccc(Cl)cc3)nc12 [Compound 663] , field pIC50: 6.00 to 7.00

Record O=C(O)[C@H](Cc1ccccc1)NC(=O)[C@@H]1C[C@@H](O)CN1c1cc(=O)n2cc(-c3ccc(Cl)cc3)nc2n1Cc1ccccc1 [Compound 749] , field pIC50: > 8.00

Record CC(C)(C)[C@H](NC(=O)[C@@H]1CCCN1c1cc(=O)n2cc(-c3ccc(Cl)cc3)nc2n1Cc1ccccc1)C(=O)O [Compound 746] , field pIC50: > 8.00

Record CCCCCn1c(N2CCC(C3CNC3)C2)cc(=O)n2cc(-c3ccc(Cl)cc3)nc12 (centres unmarked) [Compound 332] , field pIC50: 6.00 to 7.00

Record CCCCCn1c(N2CCC[C@H]2C(=O)N[C@H]2CCNC2=O)cc(=O)n2cc(-c3ccc(Cl)cc3)nc12 [Compound 708] , field pIC50: 7.00 to 8.00

Record CCCCCn1c(N2CCCC[C@@H]2C(=O)NCCC(=O)O)cc(=O)n2cc(-c3ccc(Cl)cc3)nc12 [Compound 626] , field pIC50: 7.00 to 8.00

Record CCCCCn1c(-c2ccc(C(N)=O)cc2)cc(=O)n2cc(-c3ccc(Cl)cc3)nc12 [Compound 375] , field pIC50: 7.00 to 8.00

Record CCCCCn1c(N2C[C@@H](O)C[C@H]2C(=O)O)cc(=O)n2cc(-c3ccc(Cl)cc3)nc12 [Compound 590] , field pIC50: 6.00 to 7.00

Record CCCCCn1c(N2CCC[C@H]2C(=O)N2CCCC(C(=O)OCC)C2)cc(=O)n2cc(-c3ccc(Cl)cc3)nc12 (some centres unmarked) [Compound 696] , field pIC50: 6.00 to 7.00

Record CCCCCn1c(N2CCN(C(=O)OC(C)(C)C)C[C@H]2C(=O)NCC(=O)O)cc(=O)n2cc(-c3ccc(Cl)cc3)nc12 [Compound 632] , field pIC50: 7.00 to 8.00

Record O=C(O)[C@H](CCc1ccccc1)NC(=O)[C@@H]1C[C@@H](O)CN1c1cc(=O)n2cc(-c3ccc(Cl)cc3)nc2n1Cc1ccccc1 [Compound 751] , field pIC50: > 8.00

Record CCCCCn1c(-c2ccc(C(=O)NCCS(=O)(=O)N3CCOCC3)cc2)cc(=O)n2cc(-c3ccc(Cl)cc3)nc12 [Compound 501] , field pIC50: 7.00 to 8.00

Record CCCCCn1c(N2CCNC[C@H]2C(=O)NCC(=O)O)cc(=O)n2cc(-c3ccc(Cl)cc3)nc12 [Compound 667] , field pIC50: 7.00 to 8.00

Record CCCCCn1c(N2CCC[C@H]2C(=O)NCCN2CCCC2)cc(=O)n2cc(-c3ccc(Cl)cc3)nc12 [Compound 647] , field pIC50: < 6.00

Record CCCCCn1c(N2CCC[C@H]2C(=O)N(C)CCC#N)cc(=O)n2cc(-c3ccc(Cl)cc3)nc12 [Compound 336] , field pIC50: 7.00 to 8.00

Record CC(C)(NC(=O)[C@@H]1CCCN1c1cc(=O)n2cc(-c3ccc(Cl)cc3)nc2n1Cc1ccccc1)C(=O)O [Compound 747] , field pIC50: 7.00 to 8.00

Record CCCCCn1c(-c2cnc(OC)nc2OC)cc(=O)n2cc(-c3ccc(Cl)cc3)nc12 [Compound 454] , field pIC50: 7.00 to 8.00

Record CCCCCn1c(-c2ccc(C(=O)OC)cc2)cc(=O)n2cc(-c3ccc(Cl)cc3)nc12 [Compound 529] , field pIC50: 6.00 to 7.00

Record CCCCCn1c(-c2ccc(NS(C)(=O)=O)cc2)cc(=O)n2cc(-c3ccc(Cl)cc3)nc12 [Compound 401] , field pIC50: 7.00 to 8.00

Record CCCCCn1c(N2CCC3CN(C(=O)OC(C)(C)C)CC32)cc(=O)n2cc(-c3ccc(Cl)cc3)nc12 (centres unmarked) [Compound 312] , field pIC50: 7.00 to 8.00

Record CCCCCn1c(-c2ccc3[nH]c(=O)[nH]c3c2)cc(=O)n2cc(-c3ccc(Cl)cc3)nc12 [Compound 448] , field pIC50: 7.00 to 8.00

Record CCCCCn1c(-c2cccc(C(=O)NCCN(C)C)c2)cc(=O)n2cc(-c3ccc(Cl)cc3)nc12 [Compound 439] , field pIC50: 7.00 to 8.00

Record CCCCCn1c(-c2ccc(F)nc2)cc(=O)n2cc(-c3ccc(Cl)cc3)nc12 [Compound 457] , field pIC50: 7.00 to 8.00

Record CCCCCn1c(N2CCC[C@H]2C(=O)N[C@H](CCCC)C(=O)O)cc(=O)n2cc(-c3ccc(Cl)cc3)nc12 [Compound 738] , field pIC50: > 8.00

Record CCCCCn1c(-c2ccc(N3C[C@@H](CNC(C)=O)OC3=O)cc2F)cc(=O)n2cc(-c3ccc(Cl)cc3)nc12 [Compound 449] , field pIC50: 7.00 to 8.00
